MEASUREMENT_DESCRIPTION: in vitro
CONDITIONS: human, hela cells, % viability
TEST_READOUT: viability at 28.5 h, 10 µM

                                    molecule                test_readout  reported_measurement
 0  S=C(Nc1ncn(Cc2ccc(Cl)c(Cl)c2)n1)Nc1ccc(Br)cc1Cl  viability at 28.5 h, 10 µM                 92.7%
 1  O=C(CCC1CCCC1)n1ccn(C(c2ccccc2)c2ccccc2)c1=O  viability at 28.5 h, 10 µM                  103%
 2  O=C(c1ccc2ncccc2c1)N1CCC2(CCN(C(=O)c3cc(F)c(F)cc3F)C2)C1 (centres unmarked)  viability at 28.5 h, 10 µM                   91%
 3                  Cc1noc(C)c1C(=O)N1CCOCC1  viability at 28.5 h, 10 µM                 80.5%
 4  CCn1c(C)nc2cc(C(=O)NC3CCCOC3)ccc21 (centres unmarked)  viability at 28.5 h, 10 µM                 92.5%
 5  Cc1sc2nc(SCc3nc(-c4ccccc4)no3)n(-c3ccccc3)c(=O)c2c1C  viability at 28.5 h, 10 µM                  110%
 6  COc1cc([N+](=O)[O-])ccc1NC(=O)CCN1C(=O)C2C3CCC(C3)C2C1=O (centres unmarked)  viability at 28.5 h, 10 µM                 99.3%
 7       Cc1cc(C)n(-c2ccnc(NCCc3cccnc3)n2)n1  viability at 28.5 h, 10 µM                 94.7%
 8  Cc1nc(C)n(CC(=O)N2CCc3sccc3C2c2ccco2)n1 (centres unmarked)  viability at 28.5 h, 10 µM                 98.8%
 9        CC(C)(C)OC(=O)N1CCC(NCc2ccccn2)CC1  viability at 28.5 h, 10 µM                 97.1%
10         Cc1noc(C)c1NC(=O)c1cn(C)c2ccccc12  viability at 28.5 h, 10 µM                 87.3%
11                 Cc1cc(O)cc(=O)n1Cc1cccnc1  viability at 28.5 h, 10 µM                  112%
12  CC1CCN(c2nc3nonc3nc2Nc2ccc3c(c2)OCO3)CC1  viability at 28.5 h, 10 µM                 98.8%
13             O=C(NCCNc1cnccn1)c1cncc(Br)c1  viability at 28.5 h, 10 µM                  111%
14  CC(=O)N[C@H](CC(N)=O)C(=O)N1CCC2(C/C=C/C[C@@H]3COCC[C@@H]3NC(=O)[C@@H](CC(C)C)NC2=O)CC1  viability at 28.5 h, 10 µM                  106%
15  CCOCCCNC(=O)c1cnn2c(C)c(Cc3cccc(C#N)c3)c(C)nc12  viability at 28.5 h, 10 µM                  101%
16         Cn1cncc1CN(CCCn1ccnc1)Cc1ccccc1Cl  viability at 28.5 h, 10 µM                 84.8%
17  Cc1nc(S(=O)(=O)Cc2c(F)cccc2Cl)n(CC2CCCO2)c1C (centres unmarked)  viability at 28.5 h, 10 µM                 87.9%
18  CCCc1[nH]nc(O)c1Cc1c(F)cccc1[N+](=O)[O-]  viability at 28.5 h, 10 µM                 89.5%
19  CC(C)(C)OC(=O)N1CCC[C@H]([C@H](O)c2ccc(F)cc2)C1  viability at 28.5 h, 10 µM                 92.3%

---

The entries below come with measured viability at 28.5 h, 10 µM values attached.
MEASUREMENT_DESCRIPTION: in vitro
CONDITIONS: human, hela cells, % viability

COMPOUND	viability at 28.5 h, 10 µM (%)
CC(=O)[C@H]1CC[C@H]2[C@@H]3CC[C@H]4CC5(CC[C@]4(C)[C@H]3CC[C@]12C)N=C1C=C(C(C)(C)C)ON1C1C=CCC15 (some centres unmarked) [CBK303246]	42.9
COc1ccc(C(NC(=O)c2cccc(OC)c2)c2cc(Cl)c3cccnc3c2O)cc1 (centres unmarked) [CBK264027]	90.7
CCOc1cc(/C=C(/C#N)c2nc3ccccc3[nH]2)ccc1OCc1ccc(C(=O)O)o1 [CBK267923]	88.9
Cn1ccnc1C(NC(=O)[C@@H]1C[C@@H]2C=C[C@H]1C2)c1ccc(F)cc1 (some centres unmarked) [CBK281483]	95.5
CCCN1C(=S)N(CCO)C(=O)/C1=C/C=C1/Oc2ccccc2N1CCC(=O)O [CBK261400]	88.6
C=C(C)CN1CCN(C(=O)c2cc3cccc(OC)c3oc2=O)CC1 [CBK269211]	59
Cc1nc2sccn2c1CN(CCCN(C)C)Cc1ccco1 [CBK283199]	92.5
N#Cc1c(N)nc2c(c1-c1cccnc1)CCCC2 [CBK287885]	85.8

---

MEASUREMENT_DESCRIPTION: in vitro
CONDITIONS: human, hela cells, % viability
TEST_READOUT: viability at 28.5 h, 10 µM (%)

>>> print(df.to_string())
                                    molecule  reported_measurement
 0    O=C(CSc1nc(=O)cc(O)[nH]1)N1CCc2ccccc21                  88.7
 1           CCOC(=O)N1CCN(C(=O)CCC(=O)O)CC1                  97.3
 2                   COc1ccc(CN2CCOCC2)cc1Br                  80.8
 3   Cc1nc2ncnn2c(C)c1CCC(=O)OCc1ccc(C#N)cc1                  83.7
 4            O/N=C(\Cn1cncn1)c1ccc(Cl)cc1Cl                  93.5
 5  CN(C)CCOc1ccc2c(c1)OC1(CCN(C(=O)c3ccc4sc(N)nc4c3)CC1)CC2=O                  91.4
 6  CC(C)(C)OC(=O)N1CCCC(C(=O)NC(CO)Cc2ccccn2)C1 (centres unmarked)                  88.4
 7  Cc1c(NC(=S)NC(=O)COc2ccc(Cl)cc2)cccc1C(=O)O                   103
 8        Cc1ncn(Cc2nc(-c3ccsc3)no2)c(=O)c1C                   113
 9      O=C(Cn1c(-c2ccco2)cc2cccnc21)N1CCCC1                  84.8
10  O=C(Nc1ccc(OCc2ccccc2)cc1)c1cnc2n(c1=O)CCS2                  91.3
11        CO/C(=N\S(=O)(=O)c1ccccc1)c1ccccc1                  89.4
12  O=C(O)C1C2C=CC3(CN(C/C=C/c4ccccc4)C(=O)C13)O2 (centres unmarked)                   119
13  COc1ccc(-c2nn(CCC#N)cc2C(=O)N2CCCCC2)cc1                  92.4
14  CCCNC(=O)N1CCN2C(=O)c3cc(-c4ccccc4F)ccc3NC(=O)[C@@H]2C1                  95.5
15  COc1cc(C(=O)N(Cc2ccco2)c2ccc(O)cc2)cc(OC)c1OC                   102
16  Cc1c(NC2CCN(c3ccc(C#N)cc3)C2=O)cnn1C1CCCC1 (centres unmarked)                   113
17     CCOC(=O)N1CCC(NS(=O)(=O)Cc2ccccc2)CC1                  90.7
18  Cc1ccc(S(=O)(=O)NCC(=O)N2CCOCC2)cc1[N+](=O)[O-]                  98.1
19  CCn1cc(C(=O)O)c(=O)c2cnc(N3CCN(C(=S)NC(=O)c4cccs4)CC3)nc21                  95.7

---

The entries below come with measured viability at 28.5 h, 10 µM values attached.
MEASUREMENT_DESCRIPTION: in vitro
CONDITIONS: human, hela cells, % viability
TEST_READOUT: viability at 28.5 h, 10 µM (%)

>>> print(df.to_string())
                                    compound  reported_measurement
 0  CC(C)(C)c1ccc(C(=O)Nc2ccccc2C(=O)Nc2ccc(C(=O)O)cc2)cc1                  89.1
 1  CC1=CCC(C(=O)O)C(C(=O)Nc2cccnc2)C1 (centres unmarked)                  92.9
 2    Cc1ccc(-c2ncc(OCCN3CCCC3=O)nc2N)c(C)c1                  99.3
 3  Cc1cccc(C=C(Cl)c2nc3sc(C(=O)O)c(C)c3c(=O)[nH]2)c1                  91.6
 4  O=C(Nc1cccc(NC(=S)NC(=O)c2ccc(Cl)cc2Cl)c1)c1ccccc1F                   107
 5  Cc1noc(C)c1C(=O)N1C2CCC1CC(c1ccc(F)cc1)C2 (centres unmarked)                   102
 6  C[C@H](Nc1ccc(C(F)(F)F)cc1[N+](=O)[O-])C(=O)NCCOc1ccccc1F                   106
 7  Cc1cccc(C(C)CNC(=O)N2CCC(Cc3cnn(C)c3)C2)c1 (centres unmarked)                  96.9
 8  CCN(CC)C(=O)C1CCCN1C(=O)c1ccnc(N(C)C)c1 (centres unmarked)                  99.7
 9  CC1CC1C(=O)NC1CCN(CC2(c3ccccc3)CC2)CC1 (centres unmarked)                  83.2
10  CC(NC(=O)C1CCN(CCc2ccccc2)CC1)c1ccccc1 (centres unmarked)                  99.6
11  O=C(O)CN1C(=O)C(=Cc2ccc(-c3ccc(Br)cc3)o2)SC1=S                  92.2
12  CC1CC(C)CN(Cc2csc(NC(=O)Cc3ccc(Cl)cc3)n2)C1 (centres unmarked)                  81.1
13  Cc1ncccc1Oc1ccc(NC(=O)N2CCc3ccccc3CC2)cn1                  96.6
14  O=C(N/N=C/c1cc([N+](=O)[O-])ccc1Cl)c1ccc(O)c(O)c1                   112
15  Cc1ccccc1OC(C)C(=O)NCCCc1ccccc1 (centres unmarked)                  88.3
16  Cc1ccc(C#N)cc1S(=O)(=O)NC1CC(=O)c2ccccc21 (centres unmarked)                   117
17  Cc1cc(=O)oc2cc(Sc3cccc(C(F)(F)F)c3C#N)ccc12                  93.3
18       O=C(NCc1c(F)cccc1F)c1ccc2nc[nH]c2c1                    83
19  COC(=O)c1nc(Cl)c(Cl)nc1NS(=O)(=O)c1cccc(Cl)c1C                  91.8
20  O=C(Oc1cccc(/C=N/NC(=O)c2ccccn2)c1)c1cccc(Br)c1                  90.5
21  Cc1ccc(-c2n[nH]c(=S)n2CCC(=O)N2CCC(c3c[nH]c4ccccc34)CC2)cc1                  86.8
22  Cc1ccc(OCCn2ccnc(N3CCNCC3)c2=O)c([N+](=O)[O-])n1 [CBK001381C]                  88.1
23  CCOC(=O)c1c(NC(=O)Cn2cnc([N+](=O)[O-])n2)sc2c1CCC(C)C2 (centres unmarked)                   120
24         Fc1ccc(-n2c(C3CC3)n[nH]c2=S)cc1Cl                  96.7
25   C=Cn1cc(CN2CCCN(Cc3cccc(F)c3)CC2)c(C)n1                  98.7
26  CC(C)N1CCCC[C@H]2CN(C(=O)C3OCCc4ccccc43)C[C@H]21 (some centres unmarked)                   104
27  N#CCCN(C1CCCCC1)S(=O)(=O)c1ccc(-c2ccc([N+](=O)[O-])cc2)cc1                  90.6
28  CCCc1nc(C(=O)N2Cc3cnn(Cc4ccc(F)cc4)c3C2)cs1                    86
29  NC(=O)C1(N2CCCCC2)CCN(C(=S)Nc2ccc(S(N)(=O)=O)cc2)CC1                  90.5
30            O=C(O)CCCNS(=O)(=O)c1ccc(I)cc1                   102
31  CC1CCCN(C(=O)Cn2ncn3c(cc4ccsc43)c2=O)C1 (centres unmarked)                  84.5
32  O=S(=O)(c1ccc(F)c(Cl)c1)N1CCCN(Cc2ccccc2)CC1                   101
33               Cc1cccc(NC(S)=NCc2ccccn2)c1                   104
34  CC(=O)Nc1cccc(-n2nnnc2SCC2CCCN(C)C2)c1 (centres unmarked)                   108
35        COCCn1c(SCc2nc3ccccc3nc2C)nc(C)c1C                   106
36    CC(C)Oc1ccc(C(F)(F)F)cc1N [CBK028895C]                   105
37  Cc1ccc(C(=O)/C=C\Nc2ccc(S(=O)(=O)Nc3cc(C)nc(C)n3)cc2)cc1                   124
